Test: Cycloheximide Counterscreen for Small Molecule Inhibitors of Shiga Toxin; note: read at 38.3 µM for the half of the compounds with a filed dose
Conditions: cell reporter, cycloheximide protein synthesis inhibition counterscreen
About 37,000 (12%) of roughly 300,000 compounds were called active. Cut-off read from the data, not from the text of the source: active = max response mostly above about 13% (no sharp cut-off); inactive = mostly below about 14%. What follows is part of a selection rich in actives, with near analogues and random picks from the rest.
Return exactly one item of Y for active, N for inactive

Would you mind telling me which call this test gave N/C(=N\OC(=O)CCC1CCCCC1)c1ccccn1 ?
Y

For this compound, state the assay outcome: COc1ccc(C(=O)Nc2ccccc2C(=O)N2CCN(c3ccccc3)CC2)cc1
N

For this compound, state the assay outcome: COc1ccc(/C=C(\C#N)C(=O)NCCCn2ccnc2)cc1
N

# fetch the recorded call for CSc1nnc(-c2ccc(C(F)(F)F)cn2)o1 here
Y

Status in this test for Cc1nc(N2CCOCC2)sc1C(=O)NN ?
N

Which result was noted for this compound in the test: Cc1cccc(C)c1NC(=O)CS(=O)CC(=O)N1CCN(c2ccccc2)CC1 (stereo not given)
N

So what was the verdict on COc1ccccc1Oc1nc(-c2cccnc2)nc2ccccc12 in this test?
N

Recorded call for Cc1cc(C)cc(OCC(=O)NC(C)c2ccccc2)c1 (stereo not given) ?
N

Assay outcome for NC(=O)CN1CCCC1c1ccc2c(c1)OCCO2 (stereo not given) : what was it?
N

Hi, do you know how CCOC(=O)C1CCN(C(=O)c2ccccc2N(C)S(=O)(=O)c2ccccc2)CC1 came out in this test?
N

Could you check what this test reported for O=C(CN1CCN(c2ccccn2)CC1)NC1CCCCC1 ?
N

How was CN1C(CC(=O)Nc2ccc(Br)cc2)c2ccccc2CC1(C)C (stereo not given) classified in this test?
N

Entry COc1ccc(S(=O)(=O)N2CCCC(C(=O)NCCCn3ccnc3)C2)cc1OC (stereo not given) : call = ?
N

Could you check what this test reported for O=C(CN1C(=O)COc2ccccc21)NCCN1CCc2ccccc2C1 ?
N

Please let me know the test result on file for Cc1ccc(-c2nc(C#N)c(NCCCn3ccnc3)o2)cc1 .
Y

What outcome does the record of this test show for CN(CC(=O)O)S(=O)(=O)c1ccc2oc3ccccc3c2c1 ?
N

Could you please tell me the result logged for CCCn1c(C(O)c2cc(OC)ccc2OC)nc2ccccc21 (stereo not given) in this assay?
N

What classification did CCCn1c(C2CCCN2c2nc(-c3ccc(OC)cc3)cs2)nc2ccccc21 (stereo not given) end up with in this test?
N

Called result for CC(C)Oc1ccc(Oc2ccc(C(F)(F)F)cn2)cc1
N

So what was the verdict on NS(=O)(=O)c1ccc(NC(=O)COC(=O)CCc2c[nH]c3ccccc23)cc1 in this test?
N

Recorded test call requested for CC(CC(=O)Nc1ccc(F)cc1F)S(=O)(=O)c1ccc2c(c1)NC(=O)CO2 (stereo not given)
N

Please state the recorded outcome for this compound: COc1cc(/C=N/Nc2nn3cnnc3c3ccccc23)cc(OC)c1OC
N

Give the logged outcome of this assay for the following compound: COc1ccc(C(C(O)C(=O)c2c[nH]c3ccccc23)N2CCN(c3ccccc3)CC2)cc1 (stereo not given)
Y

Tell me the recorded outcome of this test for COCc1c(C(=O)N/N=C\c2cccnc2)nnn1-c1nonc1N .
N

Status in this test for COc1ccc(Nc2nc(-c3cccnc3)nc3ccccc23)cn1 ?
N

What outcome does the record of this test show for CC(OC(=O)CN1C(=O)COc2ccccc21)C(=O)NCc1ccc(F)cc1 (stereo not given) ?
N

For this compound, state the assay outcome: CCC1(C(=O)c2ccccc2)C(c2cccc([N+](=O)[O-])c2)C1(C(=O)OC)C(=O)OC (stereo not given)
N

Fill in: this test's call for CCCn1c(CCNc2nc(-c3ccc(OC)cc3)cs2)nc2ccccc21 is ___
Y

// return assay outcome for N/C(=N\OC(=O)Cc1ccccc1[N+](=O)[O-])c1ccc(Br)cc1
N

For this compound, state the assay outcome: Cc1ccccc1C(=O)OC1OC(=O)C(Cl)=C1Nc1ccccc1 (stereo not given)
N

Just curious, what result did COc1ccc(C2=NS(=O)(=O)N(C)C(C(=O)NC(C)c3ccccc3)=C2)cc1 (stereo not given) get here?
N

For COc1ccc(NC(=O)c2sc3nc(C)nc(N4CCN(c5ccccn5)CC4)c3c2C)c(OC)c1 , what call appears in the results of this test?
N

Assay result, entry O=C(NCCCn1ccnc1)c1ccccc1F — outcome?
N

Status in this test for COC(=O)c1cccc(N(CC(=O)NCC2CCCO2)C(=O)CCC(=O)Nc2cc(C)on2)c1 (stereo not given) ?
N

Recorded call for NS(=O)(=O)c1cccc(NC(=O)CC23CC4CC(CC(Br)(C4)C2)C3)c1 ?
N

Query: recorded result category for Cc1cc(C)cc(C(=O)OCC(=O)NCCNC(=O)COC(=O)c2cc(C)cc(C)c2)c1 in this test
N

Recorded test outcome, item Cc1cc2cc(CNC(=O)c3ccc(S(=O)(=O)N4CCOCC4)cc3)ccc2[nH]1
N

Any idea what this test logged for CCOC(=O)C1(CCOc2ccccc2)CCN(Cc2ccc(C#CCCO)cc2)CC1 ?
N

# outcome recorded in this test, key = Clc1ccc(-c2cc(C3CCNCC3)[nH]n2)c(Cl)c1
N

Any idea what this test logged for Cc1cc2cc(CNC(=O)c3cccs3)ccc2[nH]1 ?
Y

Call for entry Cc1cc(C(=O)NC2CCCc3c2cnn3-c2cccc(C)c2C)c(C)o1 (stereo not given) :
N

Please share the test call associated with O=C(CN1C(=O)COc2ccccc21)Nc1ccc(F)cc1 .
Y

Which outcome was entered for the compound CC(NC(=O)CCCC1CCCCC1)c1ccc(S(N)(=O)=O)cc1 (stereo not given) in this test?
N

Call for entry COc1ccc(CCCc2nnc(SCc3nc4ccccc4c(=O)[nH]3)n2C)cc1 :
N

Called result for COc1ccccc1OCC(=O)O/N=C(\N)c1ccccn1
Y
